B1: glmS ribozyme (parent)
chain: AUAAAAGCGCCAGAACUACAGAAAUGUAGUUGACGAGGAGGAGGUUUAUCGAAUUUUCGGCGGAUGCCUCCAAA

Variants of: B1
method: self-cleavage kobs at 10000 uM GlcN6P; higher = faster cleavage; RNA array
test-context: with glucosamine-6-phosphate
This sample holds only a part of the variants without activity.
Recorded measurements of self-cleavage kobs at 10000 uM GlcN6P, one per entry
Write the number in s⁻¹ without appending the unit.

Example entries begin here.
AUAAAAGCGCCCGAACUACAGAAAUGUAGUUGACGAGGAGGAGGUUUAUCGAAUUUUAGGCGGAUGCCUCCAAA [A12C C58A]; 0.000291
AUAAAAGCGCCAGAACUACAGAAAUGUACUUGACGAGGAGGAGGUUUAUCGAAUUUUUGGCGGAUGCCUCCAAA [G29C C58U]; 4.86e-05
AUAAAAGCGCCAGAACUACAGAAAUGUAGUUGACGAGGCCGAGGUUUAUCGAAUUUUCGGCGGAUGCCUCCAAA [A39C G40C]; 0.000126
AUAAAGGCGCCAGAACUACAGAAAUGUAGUGGACGAGGAGGAGGUUUAUCGAAUUUUCGGCGGAUGCCUCCAAA [A6G U31G]; 0.000281
AUAAAAGCGCCAGAACUACAGAAAUGUAGUUGACGAGGAGGCGGUUUAUCGAAUUUUCGGCGGAUGCCUGCAAA [A42C C70G]; 4.32e-05

Dear colleague, I am looking for the recorded self-cleavage kobs at 10000 uM GlcN6P of the following variant: AUAAAAGCGCCAGAACUACAGAAAUGUAGUUGACGAGGAGGAGGUUUAUCGAAUUAUCGGCGGACGCCUCCAAA [U56A U65C]
0.000248

Also AUAAAAGCGCCAGACCUACAGAAAUGUAGUUGACGAGGAGGAGGUUUAUCGAAUUGUCGGCGGAUGCCUCCAAA [A15C U56G] ?
0.00228

Also AUAAAAUCGCCAGAACUACAGAAAUGUAGGUGACGAGGAGGAGGUUUAUGGAAUUUUCGGAGGAUGCCUCCAAA [G7U U30G C50G C61A] ?
0.000292

Also AUAAAAGCGCCAGAACUACAGAAAUGUAGUAGACGAGGAGGAGGUUUCUCGAAUUUUCGGCGGAUGCCUCCAAA [U31A A48C] ?
0.00014
